- Experiment Summary: Antioxidant activity assessed as ABTS radical scavenging activity incubated for 10 mins in dark
- Type: functional
Metric Name: IC50 (nM)

Which IC50 is reported for this molecule? O=c1cc(/C=C/c2ccc(O)cc2)occ1O
1940

Which IC50 is reported for this molecule? O=c1cc(/C=C/c2ccc([N+](=O)[O-])cc2)occ1O
1700

Any idea what its IC50 is? The molecule is O=c1cc(/C=C/c2cccc(F)c2)occ1O
3450

Given the entry CCOc1ccc(/C=C/c2cc(=O)c(O)co2)cc1 , report its measured IC50.
4210

I = Oc1ccc(/C=C/c2cc(O)cc(O)c2)cc1 [RESVERATROL]
II = O=c1cc(/C=C/c2ccccc2)occ1O
For the two items I and II , which reports the higher IC50 value? # reply format: chosen label
II

Attribution: ChEMBL document CHEMBL4261624
